B1: Zinc finger MYM-type protein 6, residues 427 to 504; numbered along this chain, O95789 (parent)
chain: KLKCQHCNHLFATKPELLFYKGKMFLFCGKNCSDEYKKKNKVVAMCDYCKLQKIIKETVRFSGVDKPFCSEVCKFLSA

- Variants of: B1
- ASSAY METHOD TEXT: abundance fitness (aPCA) (normalised: wild type 0, dead -1); higher = more abundant; growth selection in yeast, the domain comes from the species named
- CONDITION PARAMETERS: Homo sapiens
Would you mind sorting the entries by abundance fitness according to these classes? low bracket = under -0.3, middle bracket = from -0.3 up to -0.03, high bracket = -0.03 and over

[Q] # bin lookup: classify I55H by its abundance fitness
[A] high bracket

[Q] Param item: F68Q
[A] low bracket

[Q] Param item: S77T
[A] low bracket

[Q] Param item: V43L
[A] low bracket

[Q] Param item: T58P
[A] low bracket

[Q] Param item: K56L
[A] low bracket

[Q] Param item: E57D
[A] high bracket

[Q] Param item: D47Q
[A] middle bracket

[Q] Param item: V43M
[A] high bracket

[Q] Param item: S70R
[A] low bracket

[Q] Param item: K50M
[A] low bracket

[Q] Param item: L51S
[A] high bracket

[Q] Param item: K39G
[A] high bracket

[Q] Param item: I55V
[A] high bracket

[Q] Param item: L26M
[A] high bracket

[Q] Param item: R60L
[A] low bracket

[Q] Param item: I54P
[A] high bracket

[Q] Param item: G29A
[A] middle bracket

[Q] Param item: K23N
[A] high bracket

[Q] Param item: F25A
[A] high bracket

[Q] Param item: D34A
[A] middle bracket

[Q] Param item: A78W
[A] middle bracket

[Q] Param item: F27C
[A] high bracket

[Q] Param item: M45G
[A] low bracket

[Q] Param item: D34Q
[A] middle bracket

[Q] Param item: K56S
[A] low bracket

[Q] Param item: P67R
[A] high bracket

[Q] Param item: K30C
[A] middle bracket

[Q] Param item: E57A
[A] middle bracket

[Q] Param item: C69G
[A] low bracket

[Q] Param item: K50L
[A] low bracket

[Q] Param item: M45E
[A] middle bracket

[Q] Param item: C28K
[A] low bracket

[Q] Param item: P67G
[A] high bracket

[Q] Param item: D34R
[A] middle bracket

[Q] Param item: E35D
[A] middle bracket

[Q] Param item: V43K
[A] high bracket

[Q] Param item: S70A
[A] low bracket

[Q] Param item: N31A
[A] middle bracket

[Q] Param item: F68D
[A] low bracket

[Q] Param item: K37G
[A] high bracket

[Q] Param item: L76M
[A] high bracket

[Q] Param item: E71L
[A] low bracket

[Q] Param item: S77D
[A] middle bracket

[Q] Param item: F27R
[A] low bracket
